Data credit: the supplement of paper PMC10567573

B1: ZNF649 (parent)
chain: DECEKAYFYMSCLVKHKRIHSREK

variants of: B1; assay: protein stability index of a GFP-peptide fusion (GPS, HEK-293T) (PSI 1-6); higher = more stable; conditions: c terminus: a fixed tail appended;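 also: lentivirally expressed fusions sorted by FACS into six bins by GFP to DsRed ratio, PSI derived from sequencing read proportions per bin multiplied by bin number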
QUANTITY: protein stability index
# print the numeric value only

Use these answered entries as a reference point.
>>> print(df.to_string())
                      chain  result
0  DECEKAYLYMSCLVKHKRIHSREK    2.48
1  DLCEKAYFYMSCLVKHKRIHSREK    2.25
2  DECEKAYFYMSCLVKHKRIHSRET    1.98
3  DECEKAYFYMSILVKHKRIHSREK    1.64

Query: Report measured protein stability index; entry is DECEKAGFYMSCLVKHKRIHSREK
Response: 3.38

Query: Report measured protein stability index; entry is DECEKAYFYMSCLVKMKRIHSREK
Response: 1.98

Query: Report measured protein stability index; entry is DSCEKAYFYMSCLVKHKRIHSREK
Response: 1.72

Query: Report measured protein stability index; entry is DECEKAAFYMSCLVKHKRIHSREK
Response: 3.53

Query: Report measured protein stability index; entry is DECEKAYFYMSCLVKHKRIHSREA
Response: 2.1
